studySystem: Rtt109-Vps75 (Saccharomyces cerevisiae, UniProt P53853+Q07794)
protocolSummary: Isothermal titration calorimetry into Rtt109-Vps75
Assay type: binding, yeast (Saccharomyces cerevisiae)

# compound, studySystem, Kd [µM]
data = [
    ("CC(C)(COP(=O)(O)OP(=O)(O)OC[C@H]1O[C@@H](n2cnc3c(N)ncnc32)[C@H](O)[C@@H]1OP(=O)(O)O)[C@@H](O)C(=O)NCCC(=O)NCCS [CoA, Coenzyme A]", "Rtt109-Vps75 (Saccharomyces cerevisiae, UniProt P53853+Q07794)", 43),
]

---

studySystem: Rtt109-Vps75 (Saccharomyces cerevisiae, UniProt P53853+Q07794)
Sequence (Q07794 1-436): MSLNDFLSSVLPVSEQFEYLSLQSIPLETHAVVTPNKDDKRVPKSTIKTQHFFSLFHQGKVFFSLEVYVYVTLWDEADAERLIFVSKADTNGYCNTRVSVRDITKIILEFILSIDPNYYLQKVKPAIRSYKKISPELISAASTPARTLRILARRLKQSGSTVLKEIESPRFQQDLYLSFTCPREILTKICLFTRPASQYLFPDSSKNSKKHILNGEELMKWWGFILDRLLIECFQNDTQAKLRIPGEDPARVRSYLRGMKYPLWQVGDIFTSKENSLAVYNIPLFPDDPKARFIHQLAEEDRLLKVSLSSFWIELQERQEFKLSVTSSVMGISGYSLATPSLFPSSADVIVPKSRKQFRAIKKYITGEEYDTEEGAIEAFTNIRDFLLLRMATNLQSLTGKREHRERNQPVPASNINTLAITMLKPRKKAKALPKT
Sequence (P53853 1-264 partner): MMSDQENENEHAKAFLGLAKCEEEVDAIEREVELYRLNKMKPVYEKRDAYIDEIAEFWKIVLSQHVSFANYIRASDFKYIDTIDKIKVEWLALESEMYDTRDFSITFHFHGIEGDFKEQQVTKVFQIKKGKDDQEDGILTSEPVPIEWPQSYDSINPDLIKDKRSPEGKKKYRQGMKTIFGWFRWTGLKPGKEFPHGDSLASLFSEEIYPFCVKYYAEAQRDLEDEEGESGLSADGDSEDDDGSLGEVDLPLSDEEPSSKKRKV
protocolSummary: Isothermal titration calorimetry into Rtt109-Vps75
Assay type: binding, yeast (Saccharomyces cerevisiae)
experimentalSetup: 167 μM AcCoA titrated into 5.8 μM Rtt109-Vps75, 50 mM Tris pH 7.5 at 25°C, 5% glycerol, 50 mM NaCl, 2 mM β-mercaptoethanol, 1 mM EDTA; one-site model
testReadout: Kd (nM)

# compound, studySystem, testReadout, numericValue
records = [
    ("CC(=O)SCCNC(=O)CCNC(=O)[C@H](O)C(C)(C)COP(=O)(O)OP(=O)(O)OC[C@H]1O[C@@H](n2cnc3c(N)ncnc32)[C@H](O)[C@@H]1OP(=O)(O)O [AcCoA, acetyl-Coenzyme A]", "Rtt109-Vps75 (Saccharomyces cerevisiae, UniProt P53853+Q07794)", "Kd", 1400),
]
